Test: emesis in the chloralose anaesthetised dog
Conditions: male, beagle, dog, in vivo, 3000 μg kg^−1
Method: Male beagles, 11-17 kg were used. Following an overnight fast, animals were anaesthetised with chloralose (80 mg kg^−1 i.v.), having first been injected with an anaesthetic dose of the short acting barbiturate, thiopentone (15 mg kg^−1 i.v.). […] During the stabilisation period, respiratory rate was monitored to ensure that central respiratory centres were not deeply depressed, since the CNS efferent component of the emetic reflex is essentially conveyed via respiratory motor neurones. […]

{"compound": "CCCN1CCO[C@H](c2cccc(O)c2)C1.Cl [Example 8, hydrochloride]", "concentration at 15 min": "~1000 nM"}

* * *

Target: dopamine D3 receptor (Homo sapiens, UniProt P35462)
Sequence (P35462 whole entry, species assumed): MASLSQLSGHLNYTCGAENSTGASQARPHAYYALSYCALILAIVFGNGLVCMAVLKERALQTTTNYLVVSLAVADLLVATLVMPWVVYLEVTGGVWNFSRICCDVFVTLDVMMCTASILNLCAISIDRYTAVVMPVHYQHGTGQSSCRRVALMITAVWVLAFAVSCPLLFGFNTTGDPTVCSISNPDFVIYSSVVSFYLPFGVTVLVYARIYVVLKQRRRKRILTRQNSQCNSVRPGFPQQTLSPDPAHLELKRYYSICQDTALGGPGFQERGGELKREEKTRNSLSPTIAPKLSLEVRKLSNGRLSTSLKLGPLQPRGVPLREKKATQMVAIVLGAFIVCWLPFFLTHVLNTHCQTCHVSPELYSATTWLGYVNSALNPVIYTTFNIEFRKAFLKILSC
Test: cell-based
pEC50: −log10 of the molar value.

{"compound": "CCCNC1CCc2nc(N)sc2C1.Cl.Cl (stereo not shown) [Pramipexole]", "pEC50": 9.21}
